target under test: Peroxisome proliferator-activated receptor delta (Homo sapiens)
assay info: Agonist activity at PPAR-delta (unknown origin) expressed in HEK293t cells co-transfected with tk-PPRE-luciferase vector at 10 uM after 24 hrs by transactivation assay relative to GW0742
Type: cell-based
experimental context: HEK-293T
measured parameter: Emax (%)

compound_smiles=O=C(O)Cc1cn(Cc2ccccc2)c2ccc(OCCCOc3cccc(OCc4ccc(F)cc4)c3)cc12 numeric_result=59.5
compound_smiles=Cc1ccc(COc2ccc(OCCCOc3ccc4[nH]cc(CC(=O)O)c4c3)cc2)cc1 numeric_result=53.3
compound_smiles=Cc1ccc(COc2ccccc2OCCCOc2ccc3c(c2)c(CC(=O)O)cn3Cc2ccccc2)cc1 numeric_result=68.9
compound_smiles=O=C(O)Cc1c[nH]c2ccc(OCCCOc3cccc(Oc4ccc(C(F)(F)F)cc4)c3)cc12 numeric_result=43.2
compound_smiles=O=C(O)Cc1cn(Cc2ccccc2)c2ccc(OCCCOc3cccc(OCc4ccccc4)c3)cc12 numeric_result=95.5
compound_smiles=O=C(O)Cc1cn(Cc2ccccc2)c2ccc(OCCCOc3cccc(OCc4ccc(C(F)(F)F)cc4)c3)cc12 numeric_result=87.4
compound_smiles=C=CCn1cc(CC(=O)O)c2cc(OCCCOc3cccc(OCc4ccc(Cl)cc4)c3)ccc21 numeric_result=71.1
compound_smiles=CCCn1cc(CC(=O)O)c2cc(OCCCOc3cccc(OCc4ccc(Cl)cc4)c3)ccc21 numeric_result=77.1
compound_smiles=O=C(O)Cc1c[nH]c2ccc(OCCCOc3cccc(Oc4ccc(Cl)cc4)c3)cc12 numeric_result=37.9

Data provenance is ChEMBL document CHEMBL3596146.
